Assay Info: IP pharmacokinetics and tissue distribution of C-86 in C57BL/6J mice
Type: in vivo, mouse
Condition Set: male, C57BL/6J, mouse; mice; IP, 10 mg/kg; pancreas
Measured Parameter: Cmax
State the result as a value with its unit after it.

Q: Need Cmax of `CS(=O)(=O)N1CCN(C(=O)c2cnc3ccc(F)cc3c2N2CCC(C#N)(c3ccccc3)CC2)CC1` , thanks.
A: 34400 ng/mL

---

Assay Info: Pharmacokinetics IV and PO in CD-1 mice, plasma
Format: in vivo
Condition Set: male, CD-1; mouse plasma; oral administration, 10 mg/kg
Measured Parameter: half-life (min)
Respond with the bare value in min.

Q: Need half-life of C=CS(=O)(=O)N1CCN(c2c(C(=O)N3CCN(S(C)(=O)=O)CC3)cnc3ccc(F)cc23)CC1 [Compound C-99] , thanks.
A: 30

---

Assay Info: Pharmacokinetics IV and PO in CD-1 mice, plasma
Type: in vivo
Condition Set: male, CD-1; mouse plasma; intravenous administration, 2 mg/kg
Measured Parameter: AUC(0-inf) (µg·h/mL)
Respond with the bare value in µg·h/mL.

Q: Need AUC(0-inf) of C=CS(=O)(=O)N1CCN(c2c(C(=O)N3CCN(S(C)(=O)=O)CC3)cnc3ccc(F)cc23)CC1 [Compound C-99] , thanks.
A: 0.037

---

Assay Info: IP pharmacokinetics and tissue distribution of C-86 in C57BL/6J mice
Type: in vivo, mouse
Condition Set: male, C57BL/6J, mouse; mice; IP, 30 mg/kg; liver
Measured Parameter: Cmax
State the result as a value with its unit after it.

Q: Need Cmax of `CS(=O)(=O)N1CCN(C(=O)c2cnc3ccc(F)cc3c2N2CCC(C#N)(c3ccccc3)CC2)CC1` , thanks.
A: 70.5 µg/mL

---

Assay Info: IP pharmacokinetics and tissue distribution of C-86 in C57BL/6J mice
Assay type: in vivo, mouse
Condition Set: male, C57BL/6J, mouse; mice; IP, 30 mg/kg; pancreas
Measured Parameter: AUC(0-inf) (µg·h/mL)
Respond with the bare value in µg·h/mL.

Q: Need AUC(0-inf) of CS(=O)(=O)N1CCN(C(=O)c2cnc3ccc(F)cc3c2N2CCC(C#N)(c3ccccc3)CC2)CC1 [Compound C-86] , thanks.
A: 276

---

Assay Info: IP pharmacokinetics and tissue distribution of C-86 in C57BL/6J mice
Assay type: in vivo, mouse
Condition Set: male, C57BL/6J, mouse; mice; IP, 10 mg/kg; adipose (mesenteric)
Measured Parameter: AUC(0-inf) (µg·h/mL)
Respond with the bare value in µg·h/mL.

Q: Need AUC(0-inf) of `CS(=O)(=O)N1CCN(C(=O)c2cnc3ccc(F)cc3c2N2CCC(C#N)(c3ccccc3)CC2)CC1` , thanks.
A: 121

---

Assay Info: Pharmacokinetics IV and PO in CD-1 mice, plasma
Type: in vivo
Condition Set: male, CD-1; mouse plasma; oral administration, 10 mg/kg
Measured Parameter: AUC(0-inf) (ng·h/mL)
Respond with the bare value in ng·h/mL.

Q: Need AUC(0-inf) of `C=CS(=O)(=O)N1CCN(c2c(C(=O)N3CCN(S(C)(=O)=O)CC3)cnc3ccc(F)cc23)CC1` , thanks.
A: 11

---

Assay Info: IP pharmacokinetics and tissue distribution of C-86 in C57BL/6J mice
Assay type: in vivo, mouse
Condition Set: male, C57BL/6J, mouse; mice; IP, 10 mg/kg; plasma
Measured Parameter: Cmax (ng/mL)
Respond with the bare value in ng/mL.

Q: Need Cmax of `CS(=O)(=O)N1CCN(C(=O)c2cnc3ccc(F)cc3c2N2CCC(C#N)(c3ccccc3)CC2)CC1` , thanks.
A: 2930

---

Assay Info: IP pharmacokinetics and tissue distribution of C-86 in C57BL/6J mice
Format: in vivo, mouse
Condition Set: male, C57BL/6J, mouse; mice; IP, 30 mg/kg; brain
Measured Parameter: AUC(0-inf) (ng·h/mL)
Respond with the bare value in ng·h/mL.

Q: Need AUC(0-inf) of `CS(=O)(=O)N1CCN(C(=O)c2cnc3ccc(F)cc3c2N2CCC(C#N)(c3ccccc3)CC2)CC1` , thanks.
A: 4520

---

Assay Info: IP pharmacokinetics and tissue distribution of C-86 in C57BL/6J mice
Type: in vivo, mouse
Condition Set: male, C57BL/6J, mouse; mice; IP, 10 mg/kg; brain
Measured Parameter: AUC(0-inf) (ng·h/mL)
Respond with the bare value in ng·h/mL.

Q: Need AUC(0-inf) of CS(=O)(=O)N1CCN(C(=O)c2cnc3ccc(F)cc3c2N2CCC(C#N)(c3ccccc3)CC2)CC1 [Compound C-86] , thanks.
A: 753

---

Assay Info: Pharmacokinetics IV and PO in CD-1 mice, plasma
Format: in vivo
Condition Set: male, CD-1; mouse plasma; intravenous administration, 2 mg/kg; read-out: Cmax
Measured Parameter: Cmax (ng/mL)
Respond with the bare value in ng/mL.

Q: Need Cmax of `C=CS(=O)(=O)N1CCN(c2c(C(=O)N3CCN(S(C)(=O)=O)CC3)cnc3ccc(F)cc23)CC1` , thanks.
A: 117

---

Assay Info: IP pharmacokinetics and tissue distribution of C-86 in C57BL/6J mice
Format: in vivo, mouse
Condition Set: male, C57BL/6J, mouse; mice; IP, 10 mg/kg; plasma
Measured Parameter: AUC(0-inf) (ng·h/mL)
Respond with the bare value in ng·h/mL.

Q: Need AUC(0-inf) of `CS(=O)(=O)N1CCN(C(=O)c2cnc3ccc(F)cc3c2N2CCC(C#N)(c3ccccc3)CC2)CC1` , thanks.
A: 3720

---

For hALDHIA1 (Homo sapiens, UniProt P00352), measured IC50 is reported for the entries below.
Respond with the bare value in nM.

Q: Short answer please: IC50, hALDHIA1 (Homo sapiens, UniProt P00352), entry `N#CC1(c2ccc(-c3c(C(=O)N[C@H]4CC[C@H](O)CC4)cnc4ccc(F)cc34)cc2)CC1`
A: 7

For the next question, use this compound.
Q: Short answer please: IC50, hALDHIA1 (Homo sapiens, UniProt P00352), entry `N#CC1(c2ccc(-c3c(C(=O)Nc4cnn(CCO)c4)cnc4ccc(F)cc34)cc2)CC1`
A: 4

---

Assay Info: IP pharmacokinetics and tissue distribution of C-86 in C57BL/6J mice
Assay type: in vivo, mouse
Condition Set: male, C57BL/6J, mouse; mice; IP, 30 mg/kg; plasma
Measured Parameter: Cmax
State the result as a value with its unit after it.

Q: Need Cmax of `CS(=O)(=O)N1CCN(C(=O)c2cnc3ccc(F)cc3c2N2CCC(C#N)(c3ccccc3)CC2)CC1` , thanks.
A: 11600 ng/mL

---

Assay Info: IP pharmacokinetics and tissue distribution of C-86 in C57BL/6J mice
Format: in vivo, mouse
Condition Set: male, C57BL/6J, mouse; mice; IP, 10 mg/kg; adipose (mesenteric)
Measured Parameter: Cmax (ng/mL)
Respond with the bare value in ng/mL.

Q: Need Cmax of CS(=O)(=O)N1CCN(C(=O)c2cnc3ccc(F)cc3c2N2CCC(C#N)(c3ccccc3)CC2)CC1 [Compound C-86] , thanks.
A: 45200

---

Assay Info: IP pharmacokinetics and tissue distribution of C-86 in C57BL/6J mice
Assay type: in vivo, mouse
Condition Set: male, C57BL/6J, mouse; mice; IP, 30 mg/kg; plasma
Measured Parameter: AUC(0-inf)

Q: Need AUC(0-inf) of CS(=O)(=O)N1CCN(C(=O)c2cnc3ccc(F)cc3c2N2CCC(C#N)(c3ccccc3)CC2)CC1 [Compound C-86] , thanks.
A: 28000 ng·h/mL

---

Assay Info: IP pharmacokinetics and tissue distribution of C-86 in C57BL/6J mice
Assay type: in vivo, mouse
Condition Set: male, C57BL/6J, mouse; mice; IP, 10 mg/kg; pancreas
Measured Parameter: AUC(0-inf) (ng·h/mL)
Respond with the bare value in ng·h/mL.

Q: Need AUC(0-inf) of `CS(=O)(=O)N1CCN(C(=O)c2cnc3ccc(F)cc3c2N2CCC(C#N)(c3ccccc3)CC2)CC1` , thanks.
A: 35000

The values you see were collected from patent US20260248799A1.
